Every entry's value here was drawn from paper PMC3072847.

Study target: T1, CusB (E. coli, UniProt P77239 29-407)
T1 sequence (looked up): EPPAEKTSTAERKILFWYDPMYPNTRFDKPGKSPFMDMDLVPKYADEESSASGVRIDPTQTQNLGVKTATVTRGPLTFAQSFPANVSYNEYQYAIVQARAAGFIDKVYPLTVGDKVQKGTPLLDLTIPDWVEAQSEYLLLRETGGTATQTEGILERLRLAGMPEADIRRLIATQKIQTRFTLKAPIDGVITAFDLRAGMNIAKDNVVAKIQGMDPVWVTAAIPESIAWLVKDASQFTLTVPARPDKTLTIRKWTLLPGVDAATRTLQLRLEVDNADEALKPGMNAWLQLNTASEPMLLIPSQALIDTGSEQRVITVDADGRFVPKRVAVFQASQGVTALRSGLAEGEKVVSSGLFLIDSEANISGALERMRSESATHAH
Measurement description: NMR 15N relaxation
Assay readout: Kd

IN: Query: Kd; subject: CusF (natural protein, E. coli, UniProt P77214 22-110, looked up) ANEHHHETMSEAQPQVISATGVVKGIDLESKKITIHHDPIAAVNWPEMTMRFTITPQTKMSEIKTGDKVAFNFVQQGNLSLLQDIKVSQ
OUT: ~160 µM
